Catalogue of compounds with associated log10 of Ki
- assayed target: Cannabinoid receptor (Rattus norvegicus, UniProt Q9QZN9+P20272)
- Format: cell membranes, Wistar, Brain, Membranes
Units before log transform: nM; reported quantity: Ki; transform: log10.

Below: 5 compounds and their reported log10 of Ki.
smiles entry	log10 of Ki
CC(=O)NCCCCCn1cc(C(=O)c2cccc3ccccc23)c2ccccc21	2.17
C[C@@H](NC(=O)[C@@H](N)Cc1ccc(O)cc1)C(=O)NCC(=O)N[C@@H](Cc1ccccc1)C(=O)NCCCCCn1cc(C(=O)c2cccc3ccccc23)c2ccccc21	2.92
C[C@@H](NC(=O)[C@@H](N)Cc1ccc(O)cc1)C(=O)NCC(=O)N[C@@H](Cc1ccccc1)C(=O)NCCCC(=O)NCCCCCn1cc(C(=O)c2cccc3ccccc23)c2ccccc21	3.02
COc1ccc2c3c1O[C@H]1/C(=N\OCC(=O)NCCCOCCOCCOCCCNC(=O)CCCCCn4cc(C(=O)c5cccc6ccccc56)c5ccccc54)CC[C@@]4(O)[C@@H](C2)N(C)CC[C@]314	1.89
NCCCCCn1cc(C(=O)c2cccc3ccccc23)c2ccccc21	2.43

QUERY: Specify reported log10 of Ki for the compound shown: "COc1ccc2c3c1O[C@H]1/C(=N\OCC(=O)NCCNC(=O)CCCCCn4cc(C(=O)c5cccc6ccccc56)c5ccccc54)CC[C@@]4(O)[C@@H](C2)N(C)CC[C@]314"
RESULT: 0.97

###

- assayed target: Cannabinoid receptor (Rattus norvegicus, UniProt Q9QZN9+P20272)
- procedure text: Displacement of [3H]JWH-018 from CB1R/CB2R in Wistar rat brain membranes after 60 mins by liquid scintillation analysis
- Assay type: cell membranes
metric name: log10 Ki (log10 of the value in nM)
Units before log transform: nM; reported quantity: Ki; transform: log10.

Below: 2 molecules and their reported log10 Ki.
>>> df
                               smiles_entry  recorded_number
0  CCCCCn1cc(C(=O)c2cccc3ccccc23)c2cc(Br)ccc21             1.77
1  C[C@@H](NC(=O)[C@@H](N)Cc1ccc(O)cc1)C(=O)NCC(=O)N[C@@H](Cc1ccccc1)C(=O)NCCC(=O)NCCCCCn1cc(C(=O)c2cccc3ccccc23)c2ccccc21             2.96

QUERY: Fetch value of log10 Ki on Cannabinoid receptor (Rattus norvegicus, UniProt Q9QZN9+P20272) for "C[C@@H](NC(=O)[C@@H](N)Cc1ccc(O)cc1)C(=O)NCC(=O)N[C@@H](Cc1ccccc1)C(=O)NCCCC(=O)NCCCCCn1cc(C(=O)c2cccc3ccccc23)c2ccccc21" .
RESULT: 2.97

QUERY: Fetch value of log10 Ki on Cannabinoid receptor (Rattus norvegicus, UniProt Q9QZN9+P20272) for "C[C@@H](NC(=O)[C@@H](N)Cc1ccc(O)cc1)C(=O)NCC(=O)N[C@@H](Cc1ccccc1)C(=O)NCCCCCn1cc(C(=O)c2cccc3ccccc23)c2ccccc21" .
RESULT: 3.01

QUERY: Fetch value of log10 Ki on Cannabinoid receptor (Rattus norvegicus, UniProt Q9QZN9+P20272) for "COc1ccc2c3c1O[C@H]1/C(=N\OCC(=O)NCCCCCCNC(=O)CCCCCn4cc(C(=O)c5cccc6ccccc56)c5ccccc54)CC[C@@]4(O)[C@@H](C2)N(C)CC[C@]314" .
RESULT: 1.53
